The reported numbers originate from patent US20260014285A1.

Target: integrin αvβ3 (Homo sapiens, UniProt P05106+P06756)
Sequence (P06756 31-992 limits assumed): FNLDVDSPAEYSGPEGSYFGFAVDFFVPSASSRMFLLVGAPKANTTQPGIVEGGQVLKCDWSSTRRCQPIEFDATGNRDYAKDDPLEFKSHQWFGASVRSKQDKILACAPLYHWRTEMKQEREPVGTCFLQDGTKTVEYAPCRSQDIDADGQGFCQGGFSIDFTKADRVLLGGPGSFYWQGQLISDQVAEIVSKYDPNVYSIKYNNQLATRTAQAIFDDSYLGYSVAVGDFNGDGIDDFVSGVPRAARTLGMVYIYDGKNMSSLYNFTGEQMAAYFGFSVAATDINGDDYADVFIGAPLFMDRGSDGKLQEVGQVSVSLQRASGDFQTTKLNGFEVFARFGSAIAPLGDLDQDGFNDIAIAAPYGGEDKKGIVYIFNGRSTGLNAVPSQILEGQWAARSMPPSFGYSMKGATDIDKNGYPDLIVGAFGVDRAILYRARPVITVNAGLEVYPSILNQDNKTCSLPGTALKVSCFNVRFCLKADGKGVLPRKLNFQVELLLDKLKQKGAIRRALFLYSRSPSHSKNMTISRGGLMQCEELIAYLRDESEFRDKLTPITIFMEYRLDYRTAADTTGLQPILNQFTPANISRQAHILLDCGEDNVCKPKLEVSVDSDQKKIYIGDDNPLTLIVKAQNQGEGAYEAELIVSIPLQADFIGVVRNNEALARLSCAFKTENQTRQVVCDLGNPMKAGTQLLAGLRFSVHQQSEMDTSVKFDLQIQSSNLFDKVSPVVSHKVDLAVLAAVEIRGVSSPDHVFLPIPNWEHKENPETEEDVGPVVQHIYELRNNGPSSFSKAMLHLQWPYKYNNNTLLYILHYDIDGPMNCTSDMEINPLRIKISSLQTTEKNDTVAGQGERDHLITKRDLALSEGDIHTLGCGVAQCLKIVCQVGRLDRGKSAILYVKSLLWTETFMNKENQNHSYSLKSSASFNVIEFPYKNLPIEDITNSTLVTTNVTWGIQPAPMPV
Sequence (P05106 27-718 limits assumed): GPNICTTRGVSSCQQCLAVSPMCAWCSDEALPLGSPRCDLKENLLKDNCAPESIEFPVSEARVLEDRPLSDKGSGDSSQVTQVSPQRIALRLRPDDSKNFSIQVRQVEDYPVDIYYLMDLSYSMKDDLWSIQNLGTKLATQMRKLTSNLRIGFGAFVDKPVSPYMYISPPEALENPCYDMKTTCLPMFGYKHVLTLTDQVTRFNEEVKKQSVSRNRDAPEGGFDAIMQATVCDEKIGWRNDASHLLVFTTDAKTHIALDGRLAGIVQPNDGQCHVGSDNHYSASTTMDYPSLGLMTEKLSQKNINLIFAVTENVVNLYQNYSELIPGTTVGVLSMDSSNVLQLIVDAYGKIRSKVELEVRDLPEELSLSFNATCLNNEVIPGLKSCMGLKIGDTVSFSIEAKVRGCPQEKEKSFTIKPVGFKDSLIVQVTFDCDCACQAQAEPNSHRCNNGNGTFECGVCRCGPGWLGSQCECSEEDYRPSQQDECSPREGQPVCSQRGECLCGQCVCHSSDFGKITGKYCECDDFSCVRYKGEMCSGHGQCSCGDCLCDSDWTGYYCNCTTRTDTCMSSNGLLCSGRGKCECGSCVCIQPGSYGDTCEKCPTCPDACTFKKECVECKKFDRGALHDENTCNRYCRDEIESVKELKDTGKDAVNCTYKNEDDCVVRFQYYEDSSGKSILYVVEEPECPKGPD
Test: Target affinity test by surface plasmon resonance (SPR), integrin αvβ3
Format: binding
Conditions: SPR (Biacore T200), CM5 chip, 25° C., KD=Kd/Ka
Procedure: Surface plasmon resonance (SPR) technique was used to test the affinity of the compound in the examples to the target protein integrin α5β1. Specifically, the following operations were performed. The affinity constants (KD) of the compounds to the target proteins integrin α5β1, αvβ3, and αvβ5 were calculated according to the formula of KD=Kd/Ka (the lower the value of KD, the higher the affinity of the compounds of the examples to the target protein integrin α5β1).
Non-standard residues stand in square brackets, D forms with d. Residues, ends and D or L forms follow the SMILES beside them. ξ: configuration not given here. *: point of attachment. DOTA = O=C(O)CN1CCN(CC(=O)O)CCN(CC(=O)*)CCN(CC(=O)O)CC1; ξIle = CC[C@H](C)C(N)C(=O)O; Pip = O=C(O)[C@@H]1CCCCN1; ξN = NC(=O)CC(N)C(=O)O; AEEA = NCCOCCOCC(=O)O; Aib = CC(C)(N)C(=O)O; AEA = NCCOCC(=O)O
Mark 1 only for Kd values smaller than 2 nM; exact matches and larger values are 0.

INSERT INTO measurements (compound, answer_label) VALUES
  ('CC[C@H](C)C(NC(=O)[C@@H](NC(=O)[C@H](CC(=O)O)NC(=O)[C@H](CC(N)=O)NC(=O)COCCOCCNC(=O)CN1CCN(CC(=O)O)CCN(CC(=O)O)CCN(CC(=O)O)CC1)C(C)C)C(=O)N[C@@H](CC(N)=O)C(=O)O (stereo partly drawn) [TM14] ({DOTA-AEEA}-NDV[ξIle]N-OH)', 0),
  ('CC[C@H](C)[C@H](NC(=O)[C@@H]1CCCCN1C(=O)[C@H](CC(=O)O)NC(=O)[C@H](CC(N)=O)NC(=O)CN1CCN(CC(=O)O)CCN(CC(=O)O)CCN(CC(=O)O)CC1)C(=O)NC(CC(N)=O)C(=O)O (stereo partly drawn) [TM9] ({DOTA}-ND[Pip]I[ξN]-OH)', 1),
  ('CC[C@H](C)C(NC(=O)[C@@H](NC(=O)[C@H](CC(=O)O)NC(=O)[C@H](CC(N)=O)NC(=O)[C@H](CC(=O)O)NC(=O)CNC(=O)[C@H](CCCNC(=N)N)NC(=O)COCCNC(=O)CN1CCN(CC(=O)O)CCN(CC(=O)O)CCN(CC(=O)O)CC1)C(C)C)C(=O)N[C@@H](CC(N)=O)C(=O)O (stereo partly drawn) [TM15] ({DOTA-AEA}-RGDNDV[ξIle]N-OH)', 1),
  ('CC[C@H](C)[C@H](NC(=O)[C@@H](NC(=O)[C@H](CC(=O)O)NC(=O)[C@H](CC(N)=O)NC(=O)COCCNC(=O)CN1CCN(CC(=O)O)CCN(CC(=O)O)CCN(CC(=O)O)CC1)C(C)C)C(=O)N[C@@H](CC(N)=O)C(=O)O [TM13] ({DOTA-AEA}-NDVIN-OH)', 1),
  ('CC[C@H](C)[C@H](NC(=O)[C@@H](NC(=O)[C@H](CC(=O)O)NC(=O)[C@H](CC(N)=O)NC(=O)CN1CCN(CC(=O)O)CCN(CC(=O)O)CCN(CC(=O)O)CC1)C(C)C)C(=O)N[C@@H](CC(N)=O)C(=O)O [TM4, DOTA-Asn-Asp-Val-Ile-Asn-OH] ({DOTA}-NDVIN-OH)', 0),
  ('CC[C@H](C)[C@H](NC(=O)C(C)(C)NC(=O)[C@H](CC(=O)O)NC(=O)[C@H](CC(N)=O)NC(=O)CN1CCN(CC(=O)O)CCN(CC(=O)O)CCN(CC(=O)O)CC1)C(=O)N[C@@H](CC(N)=O)C(=O)O [TM11] ({DOTA}-ND[Aib]IN-OH)', 0);
